Assay: Selectivity for human recombinant COX2 to ovine COX1
Cut-off 2 on Selectivity ratio: below means condition met, at or above means condition not met.

Exercise: Just wondering, is Selectivity ratio of `COc1ccc(-c2ccccc2-c2nc3ccccc3o2)cc1OC` below 2?
Solution: condition met

Exercise: Dear colleague, could you confirm whether Selectivity ratio of `COc1cccc(-c2ccccc2-c2nc3ccccc3o2)c1OC` falls below 2? Thanks.
Solution: condition met

Exercise: API: query returns whether the molecule falls strictly under 2 in Selectivity ratio. Query: `N#Cc1ccc(-c2ccccc2-c2nc3ccccc3o2)cc1`
Solution: condition not met

Exercise: Say whether its Selectivity ratio is strictly beneath 2. Entry: `Clc1cc(-c2ccccc2-c2nc3ccccc3o2)ccc1OCc1ccccc1`
Solution: condition met

Exercise: # strict comparison: is reported Selectivity ratio < 2? input = `COc1ccc(-c2ccccc2-c2nc3ccccc3o2)cc1`
Solution: condition met

Exercise: hey, is Selectivity ratio for `CS(=O)(=O)c1ccc(-c2ccccc2-c2nc3ccccc3o2)cc1` lower than 2 or not?
Solution: condition not met
